Molecular target: activated ROCK II (Rattus norvegicus, UniProt Q62868)
Sequence (Q62868 11-550 limits assumed): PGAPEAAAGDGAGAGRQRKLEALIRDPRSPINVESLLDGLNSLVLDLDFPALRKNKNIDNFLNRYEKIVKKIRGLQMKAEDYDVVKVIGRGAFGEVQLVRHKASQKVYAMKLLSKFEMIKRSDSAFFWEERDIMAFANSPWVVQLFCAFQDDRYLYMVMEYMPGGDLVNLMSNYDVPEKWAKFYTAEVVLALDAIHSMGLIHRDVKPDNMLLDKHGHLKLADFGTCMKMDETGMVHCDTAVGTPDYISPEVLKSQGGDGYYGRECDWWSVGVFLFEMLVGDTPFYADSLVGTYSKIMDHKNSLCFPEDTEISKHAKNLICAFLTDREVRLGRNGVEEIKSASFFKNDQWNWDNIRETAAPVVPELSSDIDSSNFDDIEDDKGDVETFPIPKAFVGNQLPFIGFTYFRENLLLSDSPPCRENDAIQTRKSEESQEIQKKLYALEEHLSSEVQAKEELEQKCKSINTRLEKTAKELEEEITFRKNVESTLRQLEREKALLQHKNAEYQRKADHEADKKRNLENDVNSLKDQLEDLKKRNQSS
Test: Test for Evaluation of Inhibiting Activity to Rho Kinase
Settings: S6 Kinase Substrate Peptide, [γ-32P]ATP, 30° C. for 15 minutes, Ki=IC50/(1+S/Km)
Counter-ions that a name gives are not always drawn.
Ki by entry:
The reply should consist of the numeric value with the unit placed after it.

{"MOLECULE": "COC(=O)c1n[nH]c2ccc(-c3ccc(C(C)(C)N)cc3)cc12 [Compound 5-8, dihydrochloride]", "RESULT": "0.097 µM"}
{"MOLECULE": "CC(C)(N)c1cnc(-c2ccc3[nH]ncc3c2)c(Cl)c1 [Compound 5-27, trihydrochloride]", "RESULT": "0.086 µM"}
{"MOLECULE": "CCC(N)(CC)c1ccc(-c2ccc3[nH]ncc3c2OC(F)F)cc1 [Compound 5-72, dihydrochloride]", "RESULT": "0.013 µM"}

Please list Ki recorded for the molecule NCc1ccc(-c2ccc3[nH]ncc3c2N)cc1 [Compound 5-20, trihydrochloride]
0.061 µM
